# cleaved RNA product abundance per record follows
- Test system: Bacillus subtilis
- method: cleaved RNA product abundance (RNA/gDNA barcode ratio) relative to median wild-type variant (ratio to wild type); higher = more accumulation of the downstream cleavage product
- run_parameters: experiment (reporter, strain, medium): exp 4a: truncated aprE reporter, strain BJT201 with 2% xylose (RNase J1 expressed); cleavage site: cggR-gapA (positions -7 to +36 mutated)
Response field accepts a number only; no unit should be typed.

Illustrative cases are given below, each with its answer.
ACAGACGAAGGAGCCGCAAAGAAGTTATTACGGGATGAATAATCCCTCAATATAGATATCTCTCACTTATTTAAA; 0.351
ACAGACGAAGGAGCCGCAAAGAACTTATTAAGGGATGAATTATCCCTCAATATAAATATCTCTCACTTATTTAAA; 0.31
ACAGACGAAGGAGCCGCAAAGAAGTTATTAAGGGATGAATAATCCTACAATATAAATATCTCTCACTTATTTAAA; 0.295
ACAGACGAAGGAGCCGCAAAGAAGTTATTAAGGGATGAAAAATCCCTAAATATAAATATCTCTCACTTATTTAAA; 0.445
ACAGACGAAGGAGCCGCAAAGAAGTTGTTAAGGGAAGAATAATCCCTCAATATAAATATCTCTCACTTATTTAAA; 0.246

Output measured cleaved RNA product abundance for this item: `ACAGACGAAGGAGCCGCAAAGAAGTTATTAAGGGATGAATTATCCCTCACTATAAATATCTCTCACTTATTTAAA`
0.208

Output measured cleaved RNA product abundance for this item: `ACAGACGAAGGAGCCGCAAAGAAGTTATTATGGGATGAATAATTCCTCAATATAAATATCTCTCACTTATTTAAA`
0.246

###

- System: Bacillus subtilis
- method: cleaved RNA product abundance (RNA/gDNA barcode ratio) relative to median wild-type variant (ratio to wild type); higher = more accumulation of the downstream cleavage product
- run_parameters: experiment (reporter, strain, medium): exp 8a: truncated aprE reporter, strain BJT201 with 2% xylose (RNase J1 expressed); cleavage site: glnRA (positions -5 to +31 mutated)
# cleaved RNA product abundance per record follows
Response field accepts a number only; no unit should be typed.

// fetch cleaved RNA product abundance; item: `CGACATGTCCCGCTTCTTTCATTAATCTGTTAGCAACTGTTTAGCTATATACATTTACCTTTTAAGAGGAGGAAT` ; system: Bacillus subtilis
0.727

// fetch cleaved RNA product abundance; item: `CGACATGTCCCGCTTCTTTCATTAATCCGTTAGCAACTGTTATGCTAAATACATTTACCTTTTAAGAGGAGGAAT` ; system: Bacillus subtilis
0.111

###

- Test system: Bacillus subtilis
- method: cleaved RNA product abundance (RNA/gDNA barcode ratio) relative to median wild-type variant (ratio to wild type); higher = more accumulation of the downstream cleavage product
- run_parameters: experiment (reporter, strain, medium): exp 2b: truncated aprE reporter, strain BJT200; cleavage site: cggR-gapA (positions -7 to +36 mutated)
Criterion: cleaved RNA product abundance meeting or surpassing 0.1. Met: Fulfilled. Not met: Not fulfilled.

ACAGACGAAGGAGCCGCAAAGAAGTTATTAAGCGATCAATAATCCCTCAATATAAATATCTCTCACTTATTTAAA; Not fulfilled
ACAGACGAAGGAGCCGCAAAGAAATTATTAAGCGATGAATAATCCCTCAATATAAATATCTCTCACTTATTTAAA; Not fulfilled
ACAGACGAAGGAGCCGCAAAGAAGTTATAAAGGGATCAATAATCCCTCAATATAAATATCTCTCACTTATTTAAA; Fulfilled
ACAGACGAAGGAGCCGCAAAGAAGTTCTTAAGGGATGAATAATCCCTAAATATAAATATCTCTCACTTATTTAAA; Fulfilled
ACAGACGAAGGAGCCGCAAAGAAGTTATTATGGGATGAATAATCCTTCAATATAAATATCTCTCACTTATTTAAA; Fulfilled

Is cleaved RNA product abundance at least 0.1? Consider `ACAGACGAAGGAGCCGCAAAGAAGTTATTTAGGGATGAATAATCCCTAAATATAAATATCTCTCACTTATTTAAA`
Fulfilled

Is cleaved RNA product abundance at least 0.1? Consider `ACAGACGAAGGAGCCGCAAAGAAGTTATTAAGGGATGAATAATCACTCAATATAAATATCTCTCACTTATTTAAA`
Fulfilled
